# Tested on: P12-Ichikawa
# experiment-summary: cell viability relative to DMSO control; higher = less cytotoxic
# applied-conditions: HPLM + 10% dialyzed FBS; 48 h; 1.71 µM
measured-metric: cell viability

Consider the worked cases shown below.
[[record]]
compound = "O=C(O)CCCCC(CCSCc1ccccc1)SCc1ccccc1 (stereo not given)"
target_or_test_system = "P12-Ichikawa"
measured_metric = "cell viability"
result = "113%"

[[record]]
compound = "CCc1cc(C(N)=S)ccn1"
target_or_test_system = "P12-Ichikawa"
measured_metric = "cell viability"
result = "114%"

[[record]]
compound = "N[C@H]2CN(CC12CC1)c3c(F)cc4c(c3Cl)[N@@](C=C(C4=O)C(=O)O)C5C[C@H]5F (stereo not given in full)"
target_or_test_system = "P12-Ichikawa"
measured_metric = "cell viability"
result = "96.1%"

[[record]]
compound = "COc1ccc(C(CN(C)C)C2(O)CCCCC2)cc1 (stereo not given)"
target_or_test_system = "P12-Ichikawa"
measured_metric = "cell viability"
result = "96.5%"


// next entry
Summary for this compound, CC[S+](=O)([O-])Nc1ccc2c(c1)/C(=C(/Nc1ccc(CN3CCCCC3)cc1)c1ccccc1)C(=O)N2 : cell viability is 18.7%

Data provenance is the supplement of paper PMC11451515.
